Cited source for all entries: patent US8431596B2

Target: AXL (human catalytic domain) (Homo sapiens)
Construct: purchased Upstate Ltd. 14-512
Sequence (P30530 473-894): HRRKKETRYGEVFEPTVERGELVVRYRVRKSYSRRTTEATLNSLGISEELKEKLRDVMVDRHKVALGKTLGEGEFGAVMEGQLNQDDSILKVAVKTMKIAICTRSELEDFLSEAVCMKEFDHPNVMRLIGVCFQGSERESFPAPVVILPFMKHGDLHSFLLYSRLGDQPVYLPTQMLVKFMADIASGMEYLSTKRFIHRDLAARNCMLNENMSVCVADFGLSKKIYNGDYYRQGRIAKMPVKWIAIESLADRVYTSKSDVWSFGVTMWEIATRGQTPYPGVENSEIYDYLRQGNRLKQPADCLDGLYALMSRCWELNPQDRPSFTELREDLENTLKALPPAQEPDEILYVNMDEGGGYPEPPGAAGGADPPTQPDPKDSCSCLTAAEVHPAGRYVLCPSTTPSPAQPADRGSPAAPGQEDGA
Experiment: AXL (human catalytic domain) Enzyme Activity Assay (IMAP fluorescence polarisation)
Type: biochemical
Settings: further data set (WW-001 through WW-169, XX-001 through XX-469, YY-001 through YY-016, ZZ-001 through ZZ-003); 150 μM ATP
pIC50: −log10 of the molar value.
QUANTITY: pIC50

Recorded results for 2 compounds are shown here.
1) COc1ccc(-c2nccc3nc(NC(=O)C4CC4)nn23)cc1 [ZZ-003]	5.00 to 6.00
2) COc1ccc(-c2cccc3nc(Nc4ccc(OCCCN)cc4)nn23)cc1 [XX-041]	6.00 to 7.00

// returns reported pIC50 for input CNC(=O)c1ccc(-c2cccc3nc(Nc4ccc(OCCN5CCCC5)cc4)nn23)cc1 [XX-269] 5.00 to 6.00

Thanks! And COc1ccc(-c2cccc3nc(Nc4ccc(OCCN5CCCC5)cc4)nn23)cc1OC [XX-245] ? 5.00 to 6.00

Now this one: COc1ccc(-c2nccc3nc(Nc4ccc(OCCN(C)C)cc4)nn23)cc1 [YY-003] 6.00 to 7.00

Subsequent entry: COC(=O)c1ccc(-c2cccc3nc(NC(=O)C4CC4)nn23)cc1 [WW-070] 5.00 to 6.00

Quick one: c1csc(Cn2cc(-c3cccc4nc(Nc5ccc(OCCN6CCCC6)cc5)nn34)cn2)c1 [XX-275] 6.00 to 7.00

Same read-out for C#CCn1cc(-c2cccc3nc(Nc4ccc(OCCN5CCCC5)cc4)nn23)cn1 [XX-302] ? 6.00 to 7.00

And what about the compound CC(C)Oc1ccc(-c2cccc3nc(Nc4ccc(OCCCN5CCCCC5)cc4)nn23)cc1 [XX-420] ? 6.00 to 7.00
